- System Under Test: T1, Human CD3eg linker (human)
- T1 construct: Single-chain construct; also called recombinant human CD3
- T1 chain: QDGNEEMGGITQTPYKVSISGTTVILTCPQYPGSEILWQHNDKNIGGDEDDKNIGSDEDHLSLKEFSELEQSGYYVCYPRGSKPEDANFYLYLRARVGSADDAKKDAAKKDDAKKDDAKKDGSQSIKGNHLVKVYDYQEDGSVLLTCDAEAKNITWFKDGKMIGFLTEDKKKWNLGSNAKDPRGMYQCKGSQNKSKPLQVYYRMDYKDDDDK
- Experiment Notes: SPR; fold vs parent H183/L072
Everything with fold change of affinity lower than 1 fold is NOT MET; everything else, including exactly 1 fold, is MET.

Prompt: # check: fold change of affinity of H183/L072 VL Y32G (antibody, name in Kabat numbering, V domains shown) VH: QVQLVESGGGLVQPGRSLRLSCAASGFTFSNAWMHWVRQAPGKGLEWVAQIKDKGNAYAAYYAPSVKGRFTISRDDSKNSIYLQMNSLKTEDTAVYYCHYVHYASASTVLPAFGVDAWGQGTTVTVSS VL: DIVMTQSPLSLPVTPGEPASISCQASQELVHMNRNTGLHWYQQKPGQAPRLLIYKVSNRFPGVPDRFSGSGSGTDFTLKISRVEAEDVGVYYCAQGTSVPFTFGQGTKLEIK is greater than or equal to 1 fold
Response: NOT MET

Prompt: Next binder: H183/L072 VL Q27I (antibody, name in Kabat numbering, V domains shown) VH: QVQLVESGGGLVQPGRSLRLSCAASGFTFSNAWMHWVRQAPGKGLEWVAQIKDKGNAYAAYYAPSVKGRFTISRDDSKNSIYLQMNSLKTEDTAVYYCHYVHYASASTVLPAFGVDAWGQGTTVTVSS VL: DIVMTQSPLSLPVTPGEPASISCQASIELVHMNRNTYLHWYQQKPGQAPRLLIYKVSNRFPGVPDRFSGSGSGTDFTLKISRVEAEDVGVYYCAQGTSVPFTFGQGTKLEIK
Response: NOT MET

Prompt: Moving on to the next binder: H183/L072 VL R29K (antibody, name in Kabat numbering, V domains shown) VH: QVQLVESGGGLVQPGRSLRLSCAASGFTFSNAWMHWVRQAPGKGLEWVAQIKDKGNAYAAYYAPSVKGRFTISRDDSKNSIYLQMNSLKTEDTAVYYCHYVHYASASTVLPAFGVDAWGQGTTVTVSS VL: DIVMTQSPLSLPVTPGEPASISCQASQELVHMNKNTYLHWYQQKPGQAPRLLIYKVSNRFPGVPDRFSGSGSGTDFTLKISRVEAEDVGVYYCAQGTSVPFTFGQGTKLEIK
Response: MET

Prompt: Request: H183/L072 VL R54S (antibody, name in Kabat numbering, V domains shown) VH: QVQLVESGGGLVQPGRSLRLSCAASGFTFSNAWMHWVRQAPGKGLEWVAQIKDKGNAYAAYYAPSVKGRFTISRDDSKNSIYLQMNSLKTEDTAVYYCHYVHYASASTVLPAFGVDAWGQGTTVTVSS VL: DIVMTQSPLSLPVTPGEPASISCQASQELVHMNRNTYLHWYQQKPGQAPRLLIYKVSNSFPGVPDRFSGSGSGTDFTLKISRVEAEDVGVYYCAQGTSVPFTFGQGTKLEIK
Response: MET
